ASSAYED TARGET: corticotropin releasing factor 1 receptor; note: reference of the scale not given here
ASSAY SUMMARY: cell-based or functional assay
Ends that are not written are not given here.
CRF1R Emax of 20% or higher: label 1. Under 20%: label 0.

BINDER	ASSIGNED LABEL
ZGPPISIDLPFQLLRKMIEIEKQEKEKQQATTNARLLDTV (C-terminal amide) [SEQ ID NO 20]	label 1
DNPSLSIDLPFHLLRTLLELARTQSQRERAEQNAIIFASV-NH2 [SEQ ID NO 185]	label 1
SQEPPISLDLPTGLLREVLEMTKADQLAQQAHSNRKLLDIA-NH2 [SEQ ID NO 98]	label 0
IVLSLEVPIGLLQILLEQARARAAREQATTNARILARV-NH2 [SEQ ID NO 120]	label 0
IVLSLDVPIGLLQILLEQAARAAREQATTNARILARV-NH2 [SEQ ID NO 135]	label 0
ZGPPISIDLPYLLLRKMIEIEKQEKEKQQAANNRLLLDTI (C-terminal amide) [SEQ ID NO 203]	label 1
ZGPPISIDLPILLLRKMIEIEKQEKEKQQAANNRLLLDTI (C-terminal amide) [SEQ ID NO 35]	label 1
IVLSLDVPIGLLQILLEMARAEQLAQQAHSNRKLMEII-NH2 [SEQ ID NO 164]	label 1
ZGPPISIDLPIALLRKMIEIEKQEKEKQQAANNRLLLDTI (C-terminal amide) [SEQ ID NO 47]	label 0
ZGPPISIDLPWHLLRKMIEIEKQEKEKQQAANNRLLLDTI (C-terminal amide) [SEQ ID NO 209]	label 1
ZGPPISIDLPDYLLRKMIEIEKQEKEKQQAANNRLLLDTI (C-terminal amide) [SEQ ID NO 54]	label 0
